The values you see were collected from patent US20190337910A1.

- assayed_target: human α7 nAChR stably expressed in a HEK cell line (with human RIC-3) (Homo sapiens, UniProt P36544)
- Construct: PrecisION hnAChR α7/RIC-3 (product name; no catalogue number given)
- Sequence (P36544 23-502): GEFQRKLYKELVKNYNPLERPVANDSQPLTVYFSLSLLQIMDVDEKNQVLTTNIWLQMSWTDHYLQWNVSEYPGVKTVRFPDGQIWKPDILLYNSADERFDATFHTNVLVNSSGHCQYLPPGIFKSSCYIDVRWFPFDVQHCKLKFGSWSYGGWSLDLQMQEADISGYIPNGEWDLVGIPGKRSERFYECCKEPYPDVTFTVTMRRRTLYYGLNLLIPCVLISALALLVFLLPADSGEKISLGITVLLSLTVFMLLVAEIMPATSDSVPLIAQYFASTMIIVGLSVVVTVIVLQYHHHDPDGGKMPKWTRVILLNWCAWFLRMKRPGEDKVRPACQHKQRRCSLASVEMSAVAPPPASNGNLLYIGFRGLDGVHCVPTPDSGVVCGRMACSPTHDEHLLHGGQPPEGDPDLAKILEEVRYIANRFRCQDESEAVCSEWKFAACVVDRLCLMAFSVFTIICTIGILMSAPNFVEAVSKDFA
- procedure_details: Automated patch-clamp electrophysiology functional assay (Assay A), IonFlux HT, whole-cell population patch
- Type: cell-based
- assay_conditions: HEK cell line stably expressing human α7 and human RIC-3; 40 μM acetylcholine; holding potential −60 mV; room temperature; read-out: α7 nAChR EC50
endpoint_label: EC50 (nM)

• NS(=O)(=O)c1ccc(C2C(c3nc(-c4ccccc4)no3)C2(Cl)Cl)cc1 (racemic) [Example M9] = 140
• CC1(C)[C@H](c2ccc(S(N)(=O)=O)cc2)[C@H]1c1nc(-c2ccc(F)cc2C(F)(F)F)no1 [Example A2] = 1700
• CC1(C)[C@@H](c2ccc(S(N)(=O)=O)cc2)[C@@H]1c1nc(-c2cccc(F)c2)cs1 [Example K10] = 3900
• CC1(c2nc(-c3ccc(F)cc3F)no2)CC1c1ccc(S(N)(=O)=O)cc1 (stereo not drawn) [Example E3] = 6900
• CC1(C)[C@@H](c2ccc(S(N)(=O)=O)cc2)[C@@H]1c1nc(-c2cc(F)ccc2F)co1 [Example K2] = 1600
• CC1(c2ccc(S(N)(=O)=O)cc2)CC1c1nc(-c2ccc(F)cc2F)no1 (stereo not drawn) [Example E4] = 1700
• CC1(C)[C@@H](c2ccc(S(N)(=O)=O)cc2)[C@@H]1c1noc(-c2ccncc2C(F)(F)F)n1 [Example I20] = 450
• Cc1cc(S(N)(=O)=O)ccc1[C@H]1C(c2nc(-c3ccccc3)no2)C1(C)C (single isomer, unassigned; enantiomer a) [Example 38] = 4300
• CC(C)c1csc([C@H]2[C@H](c3ccc(S(N)(=O)=O)cc3)C2(C)C)n1 [Example K11] = 1100
